- System: Influenza B
- assay_method_text: microbe, parasite or virus in culture
- Assay type: cell-based
- experimental_parameters: MDCK, read-out: Antiviral EC50 Influenza B MTS
# Lookup of reported pEC50 keyed by entry
Give only the number. pEC50 is defined as minus log10 of concentration in molar units.

Request: Need pEC50, item NC(=O)c1ncn([C@@H]2O[C@H](CO)[C@@H](O)[C@H]2O)n1 [Ribavirin]
Result: 5.02

Field: next compound
Request: Need pEC50, item CCC(CC)O[C@@H]1C=C(C(=O)O)C[C@H](N)[C@H]1NC(C)=O [Oseltamivir carboxylate]
Result: 5.21

* * *

- Tested on: Influenza B
- assay_method_text: microbe, parasite or virus in culture
- Type: cell-based
- experimental_parameters: MDCK, read-out: Antiviral EC50 Influenza B Visual CPE score
# Lookup of reported pEC50 keyed by entry
Give only the number. pEC50 is defined as minus log10 of concentration in molar units.

Request: Need pEC50, item CCC(CC)O[C@@H]1C=C(C(=O)O)C[C@H](N)[C@H]1NC(C)=O [Oseltamivir carboxylate]
Result: 5.40

Continuing:
Request: Need pEC50, item `NC(=O)c1ncn([C@@H]2O[C@H](CO)[C@@H](O)[C@H]2O)n1`
Result: 5.05
